Form: system (Carbonic anhydrase 1 (Homo sapiens, UniProt P00915)), quantity (pKi), values below.
Please note pKi is a logarithmic value: minus log10 of concentration in mol/L. Answer with that number alone.

Here is how some molecules turned out for pKi.
* O=c1c2ccccc2nc(SCCN2CCCCC2)n1CCc1ccccc1 | 6.64
* NS(=O)(=O)c1ccc(N/C=C/C(=O)c2ccc(Br)cc2)cc1 | 5.07

Please indicate recorded pKi of NS(=O)(=O)c1ccc(N/C=C/C(=O)c2ccc(F)cc2)cc1 measured with Carbonic anhydrase 1 (Homo sapiens, UniProt P00915).
Sequence (P00915 whole entry): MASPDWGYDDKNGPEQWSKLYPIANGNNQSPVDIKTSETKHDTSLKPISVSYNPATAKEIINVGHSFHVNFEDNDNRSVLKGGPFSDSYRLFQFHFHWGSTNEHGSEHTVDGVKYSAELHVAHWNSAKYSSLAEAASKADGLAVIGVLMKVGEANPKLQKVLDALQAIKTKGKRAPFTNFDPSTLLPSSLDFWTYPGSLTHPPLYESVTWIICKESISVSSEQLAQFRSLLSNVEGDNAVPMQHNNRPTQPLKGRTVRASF
5.03

----------
Form: system (Carbonic anhydrase 2 (Homo sapiens, UniProt P00918)), quantity (pKi), values below.
Please note pKi is a logarithmic value: minus log10 of concentration in mol/L. Answer with that number alone.

Here is how some molecules turned out for pKi.
• NS(=O)(=O)c1ccc(N=C2C(=O)Nc3ccccc32)cc1 = 8.52
• NS(=O)(=O)c1ccc(N/N=C2\C(=O)Nc3ccccc32)cc1 = 8.19
• NS(=O)(=O)c1ccc(NCC(=O)N/N=C2\C(=O)N(Cc3ccccc3)c3ccccc32)cc1 = 8.52

# next molecule below
Write down pKi measured for item COc1cc(C2CC(c3ccc(F)cc3)=NN2c2ccc(S(N)(=O)=O)cc2)cc(OC)c1OC (centres undefined)
10.05

----------
Form: system (UniProt P00915), quantity (pKi), values below.
Please note pKi is a logarithmic value: minus log10 of concentration in mol/L. Answer with that number alone.

Here is how some molecules turned out for pKi.
* NS(=O)(=O)c1ccc(N2N=C(c3cccs3)CC2c2ccc(Br)cc2)cc1 (stereo not given) | 7.59
* NS(=O)(=O)c1ccc(N2N=C(c3cccs3)CC2c2ccccc2)cc1 (stereo not given) | 7.62
* COc1ccc(C2CC(c3cccs3)=NN2c2ccc(S(N)(=O)=O)cc2)cc1OC (stereo not given) | 7.62
* NS(=O)(=O)c1ccc(N2N=C(c3cccs3)CC2c2ccc(Cl)cc2)cc1 (stereo not given) | 7.62
* COc1ccc(C2CC(c3cccs3)=NN2c2ccc(S(N)(=O)=O)cc2)c(OC)c1 (stereo not given) | 7.62
* NS(=O)(=O)c1ccc(N2N=C(c3cccs3)CC2c2ccc(F)cc2)cc1 (stereo not given) | 7.62

Please indicate recorded pKi of Cc1ccc(C2CC(c3cccs3)=NN2c2ccc(S(N)(=O)=O)cc2)cc1 (stereo not given) measured with UniProt P00915.
7.62

Please indicate recorded pKi of NS(=O)(=O)c1ccc(N2N=C(c3cccs3)CC2c2cccs2)cc1 (stereo not given) measured with UniProt P00915.
7.62

Please indicate recorded pKi of NS(=O)(=O)c1ccc(N2N=C(c3cccs3)CC2c2ccc(C(F)(F)F)cc2)cc1 (stereo not given) measured with UniProt P00915.
7.62

Please indicate recorded pKi of COc1ccc(C2CC(c3cccs3)=NN2c2ccc(S(N)(=O)=O)cc2)cc1 (stereo not given) measured with UniProt P00915.
7.62

----------
Form: system (Carbonic anhydrase 1 (Homo sapiens)), quantity (Ki), values below.

Here is how some compounds turned out for Ki.
- COc1ccc(C2CC(c3ccc(Cl)cc3)=NN2c2ccc(S(N)(=O)=O)cc2)c(OC)c1OC (stereo not given): > 230 nM
- COc1cc(OC)c(C2CC(c3ccc(Br)cc3)=NN2c2ccc(S(N)(=O)=O)cc2)cc1OC (stereo not given): > 230 nM
- COc1cc(C2CC(c3ccc(F)cc3)=NN2c2ccc(S(N)(=O)=O)cc2)cc(OC)c1OC (stereo not given): > 230 nM
- O=C(O)CN1C(=O)S/C(=C/c2ccccc2)C1=O: > 100000 nM
- COc1cc(OC)c(C2CC(c3ccc(C(F)(F)F)cc3)=NN2c2ccc(S(N)(=O)=O)cc2)cc1OC (stereo not given): > 230 nM
- COc1ccc(C2CC(c3ccccc3)=NN2c2ccc(S(N)(=O)=O)cc2)c(OC)c1OC (stereo not given): > 230 nM
- NS(=O)(=O)c1ccc(N/N=C2\C(=O)Nc3ccccc32)cc1: 90.2 nM
- Cc1ccc(/C=C2/SC(=O)N(CC(=O)O)C2=O)cc1: > 100000 nM

Please indicate recorded Ki of COc1cc(OC)c(C2CC(c3ccc(F)cc3)=NN2c2ccc(S(N)(=O)=O)cc2)cc1OC (stereo not given) measured with Carbonic anhydrase 1 (Homo sapiens).
> 230 nM

Please indicate recorded Ki of O=C(O)CN1C(=O)S/C(=C/c2ccc(Cl)cc2)C1=O measured with Carbonic anhydrase 1 (Homo sapiens).
> 100000 nM

----------
Form: system (UniProt:Q16790), quantity (Ki), values below.
Could you give me the number in nM? Just the number is fine.

Here is how some compounds turned out for Ki.
* COc1cc([SeH])cc(OC)c1OC | 180
* Cc1ccc(CSc2nc3ccccc3c(=O)n2CCc2ccc(S(N)(=O)=O)cc2)cc1 | 19.3
* COc1cccc([SeH])c1 | 280

Please indicate recorded Ki of N#Cc1ccc(CSc2nc3ccccc3c(=O)n2CCc2ccc(S(N)(=O)=O)cc2)cc1 measured with UniProt:Q16790.
19.3

Please indicate recorded Ki of CSc1nc2ccccc2c(=O)n1CCc1ccc(S(N)(=O)=O)cc1 measured with UniProt:Q16790.
57.8

Please indicate recorded Ki of [SeH]c1ccccc1 measured with UniProt:Q16790.
180

----------
# Assay Target: UniProt O43570
# Sequence (O43570 whole entry): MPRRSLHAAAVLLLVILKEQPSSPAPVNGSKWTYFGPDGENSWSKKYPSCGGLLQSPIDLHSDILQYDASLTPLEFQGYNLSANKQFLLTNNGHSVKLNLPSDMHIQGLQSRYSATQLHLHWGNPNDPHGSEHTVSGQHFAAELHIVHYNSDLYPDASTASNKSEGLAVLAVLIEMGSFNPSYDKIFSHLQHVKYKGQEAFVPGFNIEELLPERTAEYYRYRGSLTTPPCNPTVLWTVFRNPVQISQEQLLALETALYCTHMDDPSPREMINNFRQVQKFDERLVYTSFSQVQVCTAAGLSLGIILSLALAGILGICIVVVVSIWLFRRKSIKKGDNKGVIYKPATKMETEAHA
Recorded measurements of Ki, one per entry
Could you give me the number in nM? Just the number is fine.

Here is how some compounds turned out for Ki.
- NS(=O)(=O)c1ccc(CCn2c(SCc3ccc(Cl)cc3)nc3ccccc3c2=O)cc1: 17.2
- CSc1nc2ccccc2c(=O)n1CCc1ccc(S(N)(=O)=O)cc1: 57.8

Write down Ki measured for item NS(=O)(=O)c1ccc(C(=O)N/N=C/c2cccc(O)c2)cc1
8.6

Write down Ki measured for item NS(=O)(=O)c1ccc(CCn2c(SCc3ccc(Br)cc3)nc3ccccc3c2=O)cc1
17.2

----------
# Test system: Ca9-22
# Test: cells
# Assay type: functional
# Experimental Context: Homo sapiens, time 48 hrs
# Description: Cytotoxicity against human Ca9-22 cells assessed as cell growth inhibition measured after 48 hrs by MTT assay
Recorded Metric: CC50 (µM)
Could you give me the number in µM? Just the number is fine.

Here is how some compounds turned out for CC50.
* COc1ccc(C2CC(c3ccc(Cl)cc3)=NN2c2ccc(S(N)(=O)=O)cc2)c(OC)c1 (stereo not given) | 15
* COc1cc(OC)c(C2CC(c3ccc(F)cc3)=NN2c2ccc(S(N)(=O)=O)cc2)cc1OC (stereo not given) | 6.3
* COc1cc(OC)c(C2CC(c3ccc(C(F)(F)F)cc3)=NN2c2ccc(S(N)(=O)=O)cc2)cc1OC (stereo not given) | 6.3
* COc1cc(C2CC(c3ccc(F)cc3)=NN2c2ccc(S(N)(=O)=O)cc2)cc(OC)c1OC (stereo not given) | 6.3
* COc1cc(C2CC(c3ccc(C(F)(F)F)cc3)=NN2c2ccc(S(N)(=O)=O)cc2)cc(OC)c1OC (stereo not given) | 6.3

Please indicate recorded CC50 of COc1cc(C2CC(c3ccc(Br)cc3)=NN2c2ccc(S(N)(=O)=O)cc2)cc(OC)c1OC (stereo not given) measured with Ca9-22.
6.3

Please indicate recorded CC50 of COc1cc(OC)c(C2CC(c3ccc(Br)cc3)=NN2c2ccc(S(N)(=O)=O)cc2)cc1OC (stereo not given) measured with Ca9-22.
6.3

Please indicate recorded CC50 of COc1ccc(C2CC(c3ccc(Br)cc3)=NN2c2ccc(S(N)(=O)=O)cc2)c(OC)c1OC (stereo not given) measured with Ca9-22.
6.3

Please indicate recorded CC50 of COc1ccc(C2CC(c3ccccc3)=NN2c2ccc(S(N)(=O)=O)cc2)c(OC)c1 (stereo not given) measured with Ca9-22.
15

Please indicate recorded CC50 of COc1ccc(C2CC(c3ccc(F)cc3)=NN2c2ccc(S(N)(=O)=O)cc2)cc1OC (stereo not given) measured with Ca9-22.
15

Please indicate recorded CC50 of COc1cc(OC)c(C2CC(c3cccs3)=NN2c2ccc(S(N)(=O)=O)cc2)cc1OC (stereo not given) measured with Ca9-22.
6.3

Please indicate recorded CC50 of COc1ccc(C2CC(c3ccccc3)=NN2c2ccc(S(N)(=O)=O)cc2)cc1OC (stereo not given) measured with Ca9-22.
15

Please indicate recorded CC50 of COc1ccc(C2CC(c3ccc(F)cc3)=NN2c2ccc(S(N)(=O)=O)cc2)c(OC)c1OC (stereo not given) measured with Ca9-22.
6.3

Please indicate recorded CC50 of COc1ccc(C2CC(c3ccc(Cl)cc3)=NN2c2ccc(S(N)(=O)=O)cc2)cc1OC (stereo not given) measured with Ca9-22.
15

Please indicate recorded CC50 of COc1ccc(C2CC(c3cccs3)=NN2c2ccc(S(N)(=O)=O)cc2)c(OC)c1OC (stereo not given) measured with Ca9-22.
6.3

----------
Form: system (Carbonic anhydrase 1 (Homo sapiens, UniProt P00915)), quantity (pKi), values below.
pKi: −log10 of the molar value.

Here is how some compounds turned out for pKi.
- O=S1(=O)CC=Cc2cc(-c3ccc(F)cc3)ccc2O1: < 4.00
- O=S1(=O)CC=Cc2ccc(-c3ccccc3)cc2O1: < 4.00
- O=S1(=O)CC=Cc2cccc(-c3ccc(C(F)(F)F)cc3)c2O1: < 4.00
- COc1ccc(-c2ccc3c(c2)OS(=O)(=O)CC=C3)cc1: < 4.00
- O=S1(=O)CC=Cc2cccc(Br)c2O1: < 4.00
- CCOC(=O)c1ccc(-c2ccc3c(c2)OS(=O)(=O)CC=C3)cc1: < 4.00

Write down pKi measured for item O=S1(=O)CC=Cc2cc(-c3ccc(C(F)(F)F)cc3)ccc2O1
< 4.00

Write down pKi measured for item CCOC(=O)c1ccc(-c2ccc3c(c2)C=CCS(=O)(=O)O3)cc1
< 4.00

Write down pKi measured for item COc1ccc(-c2ccc3c(c2)C=CCS(=O)(=O)O3)cc1
< 4.00

Write down pKi measured for item COc1ccc(-c2cccc3c2OS(=O)(=O)CC=C3)cc1
< 4.00

Write down pKi measured for item O=S1(=O)CC=Cc2ccc(-c3ccc(C(F)(F)F)cc3)cc2O1
< 4.00

Write down pKi measured for item O=S1(=O)CC=Cc2cc(-c3ccccc3)ccc2O1
< 4.00
